- Tested on: Klebsiella pneumoniae
- Test Protocol: Inhibition of VIM-27/CTX-M-15/SHV-11/OXA-1 in Klebsiella pneumoniae CDC-0040 assessed as cefepime antibacterial activity at 8 ug/ml after 16 to 20 hrs by CLSI-based microbroth dilution method
Assay Metric: MIC

Recorded MIC of `NCCN[C@H]1CC[C@H](CC(=O)N[C@H]2Cc3cccc(C(=O)O)c3OB2O)CC1` , please.
4 µg/mL

Entry under review: `N[C@H]1CC[C@H](CC(=O)N[C@H]2Cc3cccc(C(=O)O)c3OB2O)CC1` . Reported MIC?
> 16 µg/mL

Name the recorded MIC for `NCc1ccc(CC(=O)N[C@H]2Cc3cccc(C(=O)O)c3OB2O)cc1` .
> 16 µg/mL

MIC lookup needed for NC(=O)[C@@H]1CC[C@@H]2CN1C(=O)N2OS(=O)(=O)O [AVIBACTAM] , thanks.
> 16 µg/mL

Need MIC of O=C(O)C[C@@H]1CC[C@H](NC(=O)Cc2cccs2)B(O)O1 [VABORBACTAM] , thanks.
> 16 µg/mL

Can you look up the measured MIC of `CC(=O)N[C@H]1Cc2cccc(C(=O)O)c2OB1O` for me?
> 16 µg/mL

====

- Test Protocol: Inhibition of bacterial AmpC using nitrocefin as substrate preincubated for 15 mins followed by susbtrate addition and measured after 10 mins by spectrophotometric method
- Parameters: species or system Bacteria
Assay Metric: IC50 (nM)
Please give a number only; it is taken to be in nM.

Compound	Result Unit	IC50
NCC(=O)N[C@H]1CC[C@H](CC(=O)N[C@H]2Cc3cccc(C(=O)O)c3OB2O)CC1	nM	6
O=C(C[C@H]1CC[C@H](N2CCNCC2)CC1)N[C@H]1Cc2cccc(C(=O)O)c2OB1O	nM	3
NCc1ccc(CC(=O)N[C@H]2Cc3cccc(C(=O)O)c3OB2O)cc1	nM	12
O=C(C[C@H]1CC[C@H](NCc2cnc[nH]2)CC1)N[C@H]1Cc2cccc(C(=O)O)c2OB1O	nM	14
O=C(O)CN[C@H]1CC[C@H](CC(=O)N[C@H]2Cc3cccc(C(=O)O)c3OB2O)CC1	nM	6

I'd like to know its IC50. The compound in question is `NC[C@H]1CC[C@H](CC(=O)N[C@H]2Cc3cccc(C(=O)O)c3OB2O)CC1`
25

Entry `N[C@H]1CC[C@H](CC(=O)N[C@H]2Cc3cccc(C(=O)O)c3OB2O)CC1` has what IC50?
30

Field request: IC50 | item: NC(=O)[C@@H]1CC[C@@H]2CN1C(=O)N2OS(=O)(=O)O [AVIBACTAM]
16

====

- Test Protocol: Inhibition of bacterial OXA-1 using nitrocefin as substrate preincubated for 15 mins followed by susbtrate addition and measured after 10 mins by spectrophotometric method
- Parameters: species or system Bacteria
// values below are reported IC50

Molecule Smiles	IC50
NCCN[C@H]1CC[C@H](CC(=O)N[C@H]2Cc3cccc(C(=O)O)c3OB2O)CC1	0.16 µM
NC(=O)[C@@H]1CC[C@@H]2CN1C(=O)N2OS(=O)(=O)O	0.04 µM
O=C(O)C[C@@H]1CC[C@H](NC(=O)Cc2cccs2)B(O)O1	7.9 µM

Query: IC50; subject: `O=C(O)[C@H]1/C(=C/CO)O[C@@H]2CC(=O)N21`
0.12 µM
